B1: library; numbered along this chain (parent)
chain: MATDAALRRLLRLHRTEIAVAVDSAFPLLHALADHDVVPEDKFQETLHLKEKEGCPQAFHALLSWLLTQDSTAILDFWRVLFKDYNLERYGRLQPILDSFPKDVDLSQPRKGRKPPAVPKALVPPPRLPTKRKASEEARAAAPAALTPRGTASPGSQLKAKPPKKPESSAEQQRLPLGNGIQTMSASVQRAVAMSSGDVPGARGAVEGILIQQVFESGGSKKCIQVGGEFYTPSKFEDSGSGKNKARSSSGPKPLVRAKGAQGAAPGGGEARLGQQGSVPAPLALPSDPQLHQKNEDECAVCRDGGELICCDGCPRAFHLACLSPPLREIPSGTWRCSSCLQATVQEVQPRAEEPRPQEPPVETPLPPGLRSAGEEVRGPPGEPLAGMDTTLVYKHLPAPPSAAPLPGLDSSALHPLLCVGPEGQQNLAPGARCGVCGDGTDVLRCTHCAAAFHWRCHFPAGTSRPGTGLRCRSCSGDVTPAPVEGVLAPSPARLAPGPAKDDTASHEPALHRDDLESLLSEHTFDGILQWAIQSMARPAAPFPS

- Variants of: B1
- ASSAY_PROCEDURE: AIRE transcriptional activation functional score (insulin promoter-GFP; nonsense median 0, synonymous median 1) (normalised score); higher = higher AIRE activity (more reporter activation)
- TEST_CONTEXT: with insulin promoter-GFP reporter in HEK293
Please mark Criterion met if the recorded AIRE transcriptional activation functional score is equal to or greater than 1, and Criterion not met if it falls below.

MUTATION_KEY	CLASS_ASSIGNMENT
G260T	Criterion met
V377E	Criterion met
S411K	Criterion met
Q349C	Criterion met
S506I	Criterion met
E207R	Criterion not met
A6S	Criterion not met
P539K	Criterion not met
T151Q	Criterion met
I528C	Criterion not met
L308F	Criterion not met
A510I	Criterion not met
D526A	Criterion not met
P148R	Criterion not met
L158F	Criterion met
V20C	Criterion not met
P384H	Criterion met
R79A	Criterion not met
P95F	Criterion met
H60G	Criterion not met

From: the supplement of paper PMC12667976
